Target: T1, Boi2, P39969
T1 sequence (P39969 32-116, looked up): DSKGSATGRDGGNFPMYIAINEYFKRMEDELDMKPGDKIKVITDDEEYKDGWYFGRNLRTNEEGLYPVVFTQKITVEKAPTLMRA
Test: SPOT array
Conditions: median of control spots 1161

binder	SPOT intensity
PVLPPPRSPNRPTLS	1280
DTFLPPPPPPPSNFE	3
PPPPPPPPPPPLPQS	0
RLSFFFPLDPAYIRN	0
LPMNIQPDLPPRKIM	0
NPTKSPPPPPSPSTM	0
GDHPKGPPPPPPPPD	0
EAEEAAPQLPSRSSA	1
NGRRRPKFRVQLSGN	5
NFFRKKLGIPRKLKR	2
RKRAPTPPAPSRSEK	0
APKHAPPPVPNETDN	0
KFIPSRPAPKPPSSA	0
SSTPTTPERPKRKSG	2
FIRKRAPTPPAPSRS	0
